Sourced from ChEMBL document CHEMBL3991601

Active and inactive are the calls of the source.
For each record, write down the corresponding Kd.

Response field Kd (Cyclin-G-associated kinase (Homo sapiens)) for item `Cn1cc(-c2cnc3ccc4ccc(CS(=O)(=O)NCc5ccccn5)cc4c(=O)c3c2)cn1` : > 30 µM (inactive)

Response field Kd (Cyclin-G-associated kinase (Homo sapiens)) for item `CNC(=O)c1cccc2cc(Oc3ccnc4cc(OCC5(N)CC5)c(OC)cc34)ccc12` : > 30 µM (inactive)

Response field Kd (Cyclin-G-associated kinase (Homo sapiens)) for item `Cc1nc(NC(=O)N2CCC[C@H]2C(N)=O)sc1-c1ccnc(C(C)(C)C(F)(F)F)c1` : 4.97 µM (active)

Response field Kd (Cyclin-G-associated kinase (Homo sapiens)) for item `Cc1cc(Nc2ncnc3ccc(NC4=NC(C)(C)CO4)cc23)ccc1Oc1ccn2ncnc2c1` : > 30 µM (inactive)

Response field Kd (Cyclin-G-associated kinase (Homo sapiens)) for item `CNC(=O)c1nn(C)c2c1C(C)(C)Cc1cnc(Nc3ccc(N4CCN(C)CC4)cc3)nc1-2` : 0.003 µM (active)

Response field Kd (Cyclin-G-associated kinase (Homo sapiens)) for item `CN1C/C=C/CCOc2cccc(c2)-c2ccnc(n2)Nc2cccc(c2)C1` : > 30 µM (inactive)

Response field Kd (Cyclin-G-associated kinase (Homo sapiens)) for item `COc1cc2ncnc(Oc3cccc(NC(=O)Nc4cc(C(C)(C)C(F)(F)F)on4)c3)c2cc1OC` : > 30 µM (inactive)

Response field Kd (Cyclin-G-associated kinase (Homo sapiens)) for item `CCOc1cc2ncc(C#N)c(Nc3ccc(F)c(Cl)c3)c2cc1NC(=O)/C=C/CN(C)C` : 0.117 µM (active)

----------
molecular target: Ribosomal protein S6 kinase alpha-5 (Homo sapiens); note: in the data inactive means no Kd found up to 30 µM
Sequence (O75582 whole entry): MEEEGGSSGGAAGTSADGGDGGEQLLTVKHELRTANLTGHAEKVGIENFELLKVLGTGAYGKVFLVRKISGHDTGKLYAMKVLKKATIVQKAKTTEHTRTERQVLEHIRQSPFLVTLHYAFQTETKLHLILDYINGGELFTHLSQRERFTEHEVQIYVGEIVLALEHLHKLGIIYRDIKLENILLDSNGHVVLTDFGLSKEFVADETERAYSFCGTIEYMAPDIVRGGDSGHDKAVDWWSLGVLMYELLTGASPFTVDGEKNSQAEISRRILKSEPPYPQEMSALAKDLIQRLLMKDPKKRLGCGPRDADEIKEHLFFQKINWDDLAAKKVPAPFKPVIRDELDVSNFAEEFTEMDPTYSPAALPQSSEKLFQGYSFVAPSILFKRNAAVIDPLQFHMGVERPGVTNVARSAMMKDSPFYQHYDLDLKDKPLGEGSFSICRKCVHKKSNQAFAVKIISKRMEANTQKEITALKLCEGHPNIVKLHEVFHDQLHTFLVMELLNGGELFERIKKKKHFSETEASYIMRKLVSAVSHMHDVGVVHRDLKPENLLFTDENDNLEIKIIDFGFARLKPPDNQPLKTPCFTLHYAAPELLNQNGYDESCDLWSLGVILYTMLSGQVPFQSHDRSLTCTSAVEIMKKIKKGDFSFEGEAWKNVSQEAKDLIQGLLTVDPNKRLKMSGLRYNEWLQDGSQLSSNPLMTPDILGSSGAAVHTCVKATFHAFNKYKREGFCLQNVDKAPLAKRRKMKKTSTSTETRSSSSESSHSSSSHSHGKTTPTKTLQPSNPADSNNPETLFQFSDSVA
Active and inactive are the calls of the source.
Outcomes you can answer with include only these: yes (active), no (inactive)

Q: I would be grateful if you could indicate the recorded call for `CCn1c(C(=O)N(C2CC2)C2CC2)cc2c3c(ncn3C)c(Nc3cc(C)n(C)n3)nc21` .
A: no

Q: I would be grateful if you could indicate the recorded call for `Cc1cccc(-c2nn3c(c2-c2ccnc4ccc(C(N)=O)cc24)CCC3)n1` .
A: no

Q: I would be grateful if you could indicate the recorded call for `O=C(Nc1c[nH]nc1-c1nc2cc(CN3CCOCC3)ccc2[nH]1)NC1CC1` .
A: yes

Q: I would be grateful if you could indicate the recorded call for `C[C@H]1CNCCCN1S(=O)(=O)c1cccc2cncc(F)c12` .
A: no

Q: I would be grateful if you could indicate the recorded call for `FC(F)(F)c1ccc(/C=C/c2nc(COc3ccc(CCCCn4ccnn4)cc3)co2)cc1` .
A: no

Q: I would be grateful if you could indicate the recorded call for `COCc1c(-c2ccc(NC(=O)Nc3cc(C(F)(F)F)ccc3F)c(F)c2)c2c(N)ncnn2c1CN1CCOCC1` .
A: no

Q: I would be grateful if you could indicate the recorded call for `COc1cc2c(Nc3ccc(Cl)c(Cl)c3F)ncnc2cc1OC[C@@H]1C[C@@H]2CN(C)C[C@@H]2C1` .
A: no

Q: I would be grateful if you could indicate the recorded call for `N#CC1(c2ccc(NC(=O)c3cccnc3NCc3ccncc3)cc2)CCCC1` .
A: no

Q: I would be grateful if you could indicate the recorded call for `C[C@@H](Oc1cc(C(=O)Nc2ccc(C(=O)N3CCN(C)CC3)cc2)nnc1N)c1c(Cl)ccc(F)c1Cl` .
A: no

Q: I would be grateful if you could indicate the recorded call for `CN1C/C=C/CCOc2cccc(c2)-c2ccnc(n2)Nc2cccc(c2)C1` .
A: no

Q: I would be grateful if you could indicate the recorded call for `Cc1cc(C(=O)NOCCO)c(Nc2ccc(I)cc2F)n(C)c1=O` .
A: no

Q: I would be grateful if you could indicate the recorded call for `CCCCCCCCCCCCCCCCCCOP(=O)([O-])OC1CC[N+](C)(C)CC1` .
A: no

Q: I would be grateful if you could indicate the recorded call for `NC(=O)Nc1cc(-c2cccc(F)c2)sc1C(=O)N[C@H]1CCCNC1` .
A: no

Q: I would be grateful if you could indicate the recorded call for `CC(C)c1cc(CNc2nc(Nc3cc(C4CC4)[nH]n3)cc(N3CCN(C)CC3)n2)on1` .
A: no

Q: I would be grateful if you could indicate the recorded call for `Cc1nc(Nc2n[nH]c3c2CN(C(=O)N[C@H](CN(C)C)c2ccccc2)C3(C)C)c2sccc2n1` .
A: yes

Q: I would be grateful if you could indicate the recorded call for `O=C(Nc1cc(C(F)(F)F)cc(C(F)(F)F)c1)c1cc(Cl)ccc1O` .
A: no

Q: I would be grateful if you could indicate the recorded call for `COc1ncc(-c2ccc3nccc(-c4ccnnc4)c3c2)cc1NS(=O)(=O)c1ccc(F)cc1F` .
A: no

Q: I would be grateful if you could indicate the recorded call for `Cc1cnc(NC(=O)Nc2cc(Br)c(C)cc2OC[C@@H]2CNCCO2)cn1` .
A: no

Q: I would be grateful if you could indicate the recorded call for `CCOc1cc2ncc(C#N)c(Nc3ccc(F)c(Cl)c3)c2cc1NC(=O)/C=C/CN(C)C` .
A: no

Q: I would be grateful if you could indicate the recorded call for `COc1cc(Nc2ncc3c(n2)-c2ccc(Cl)cc2C(c2c(F)cccc2OC)=NC3)ccc1C(=O)O` .
A: no

Q: I would be grateful if you could indicate the recorded call for `C[C@@H](N)c1ccc(C(=O)Nc2ccnc3[nH]ccc23)cc1` .
A: no

Q: I would be grateful if you could indicate the recorded call for `NC1(c2ccc(-c3nc4ccn5c(=O)[nH]nc5c4cc3-c3ccccc3)cc2)CCC1` .
A: no

Q: I would be grateful if you could indicate the recorded call for `Cc1csc(-c2nnc(Nc3ccc(Oc4ncccc4-c4ccnc(N)n4)cc3)c3ccccc23)c1` .
A: yes

Q: I would be grateful if you could indicate the recorded call for `O=C(Nc1nc2cccc(-c3ccc(CN4CCS(=O)(=O)CC4)cc3)n2n1)C1CC1` .
A: no

Q: I would be grateful if you could indicate the recorded call for `C#Cc1cccc(Nc2ncnc3cc(OC)c(OCCCCCCC(=O)NO)cc23)c1` .
A: no

Q: I would be grateful if you could indicate the recorded call for `O=C(Cc1ccc(-c2ccc(OCCN3CCOCC3)cc2)cn1)NCc1ccccc1` .
A: no

Q: I would be grateful if you could indicate the recorded call for O=C1NC(=O)[C@@H](c2cn3c4c(cccc24)CCC3)[C@@H]1c1c[nH]c2ccccc12 [TIVANTINIB] .
A: no

Q: I would be grateful if you could indicate the recorded call for `COc1c(OCCCN2CCOCC2)ccc2c1N=C(NC(=O)c1cnc(N)nc1)N1CCN=C21` .
A: no

Q: I would be grateful if you could indicate the recorded call for `CC(=O)NCC(=O)N1[C@@H]2CC[C@H]1c1ccc(Nc3ncc(C(F)(F)F)c(NC4CCC4)n3)cc12` .
A: no

Q: I would be grateful if you could indicate the recorded call for `Cc1nc(NC(=O)N2CCC[C@H]2C(N)=O)sc1-c1ccnc(C(C)(C)C(F)(F)F)c1` .
A: no

Q: I would be grateful if you could indicate the recorded call for `CCn1cc(-c2ccnc3[nH]c(-c4cccc(CN(C)C)c4)cc23)c(-c2ccc(NC(=O)N(C)C)cc2)n1` .
A: no

Q: I would be grateful if you could indicate the recorded call for `CC(=O)c1cnc2ccc(-c3cc(Cl)c(O)c(Cl)c3)nc2c1N[C@H]1CC[C@H](CN(C)C)CC1` .
A: yes

Q: I would be grateful if you could indicate the recorded call for `CN(C[C@@H]1COCCO1)S(=O)(=O)Nc1ccc2ccc3ncc(-c4cnn(C)c4)cc3c(=O)c2c1` .
A: no
